Values from the Human Domainome abundance scans (Beltran et al. 2025)

We begin with a simple list: items and their reported abundance fitness.
B1: Cyclin-F, residues 28 to 80; numbered along this chain, P41002 (parent)
chain: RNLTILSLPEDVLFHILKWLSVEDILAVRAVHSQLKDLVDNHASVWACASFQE

Variants of: B1
Test: abundance fitness (aPCA) (normalised: wild type 0, dead -1); higher = more abundant; growth selection in yeast, the domain comes from the species named
Conditions: Homo sapiens
Could you keep your reply to the number by itself?

Known results for variants:
{"mutation_code": "V28W", "abundance fitness": -0.705}
{"mutation_code": "N2R", "abundance fitness": -0.078}
{"mutation_code": "A43G", "abundance fitness": -0.409}

[ask] # get_value(readout='abundance fitness', item= L3S )
[reply] -0.09

[ask] Would you mind telling me what abundance fitness value was observed for R1K ?
[reply] 0.091

[ask] Data request, read-out abundance fitness, for L3W
[reply] -0.596

[ask] If you can, please state the reported abundance fitness value of K18P .
[reply] -0.72

[ask] // query abundance fitness value for entry K18Q
[reply] -0.081

[ask] Query (variant): I16P ; field requested: abundance fitness
[reply] -0.673

[ask] Quick one: abundance fitness for S7G ?
[reply] -0.31

[ask] // query abundance fitness value for entry L3R
[reply] -0.134

[ask] Quick one: abundance fitness of E10C ?
[reply] -0.585

[ask] Recorded abundance fitness for I5Y , please?
[reply] -0.544

[ask] Record request: abundance fitness value, item E10S
[reply] -0.233

[ask] For the variant L8C , what abundance fitness is on record?
[reply] -0.993
